Please provide measured pest or weed control at 100 ppm for the entries that follow.
- System: Mycosphaerella graminicola; Anamorph: Septoria tritici; Bayer Code SEPTTR
- Measurement Notes: Leaf blotch of wheat, foliar fungicide treatment, one day protectant (1DP) or three day curative (3DC)
- Assay type: in vivo, Septoria tritici on wheat plants (variety Yuma)
- Settings: Zymoseptoria tritici, 24 h, one day protectant (1DP), 100 ppm, rating of percent disease control, read-out: SEPTTR 1DP 100 ppm

A selection of reference data follows.
*Q* Give its pest or weed control at 100 ppm value. Item: Fc1ccccc1CNC(=S)Nc1nc(OCc2ccccc2)ncc1F [Compound 438]
*A* 76 to 100%

*Q* Give its pest or weed control at 100 ppm value. Item: CN(C)CCOc1ncc(F)c(N)n1 [Compound 545]
*A* 26 to 50%

*Q* Give its pest or weed control at 100 ppm value. Item: CC(Oc1ncc(F)c(/N=C2\CCCCN2C)n1)c1ccc(F)cc1 (centres unmarked) [Compound 424]
*A* 76 to 100%

For the 8 compounds below, give their pest or weed control at 100 ppm values.
1. Fc1ccccc1NC(=S)Nc1nc(OCc2ccccc2)ncc1F [Compound 539]
2. Fc1cnc(OCc2cccs2)nc1/N=C/N1CCOCC1 [Compound 369]
3. COc1ccccc1COc1ncc(F)c(NC(=S)Nc2ccccc2F)n1 [Compound 239]
4. CCOc1ccc(COc2ncc(F)c(N)n2)cc1 [Compound 400]
5. Nc1nc(COc2ccc(COc3ncc(F)c(N)n3)cc2)ncc1F [Compound 546]
6. Nc1nc(OCc2ccc(F)c(Cl)c2)ncc1F [Compound 547]
7. Nc1nc(OCC2CCCC2)ncc1F [Compound 370]
8. Nc1nc(OCc2cc(Cl)cc(Cl)c2)ncc1F [Compound 404]

*A*
["76 to 100%", "76 to 100%", "76 to 100%", "76 to 100%", "51 to 75%", "76 to 100%", "0 to 25%", "76 to 100%"]

For the 4 compounds below, give their pest or weed control at 100 ppm values.
1. O=C(Nc1ccccc1)Nc1nc(OCc2cccc(F)c2)ncc1F [Compound 332]
2. O=C(Cc1ccccc1)Nc1nc(OCc2ccc(F)cc2)ncc1F [Compound 394]
3. CC(Oc1ncc(F)c(N)n1)c1cccc(I)c1 (centres unmarked) [Compound 798]
4. COc1ccc(COc2ncc(F)c(NSc3ccccc3[N+](=O)[O-])n2)cc1F [Compound 200]

*A*
1. 76 to 100%
2. 76 to 100%
3. 76 to 100%
4. 26 to 50%

For the 5 compounds below, give their pest or weed control at 100 ppm values.
1. CN(C)/C=N/c1nc(OC(=O)C2CC2)ncc1F [Compound 417]
2. COCCOC(=O)Nc1nc(OCc2cccc(F)c2)ncc1F [Compound 273]
3. O=C(Nc1nc(OCc2ccccc2)ncc1F)OCc1ccccc1 [Compound 298]
4. CCCCN(C)/C=N/c1nc(OCc2ccc(F)cc2)ncc1F [Compound 518]
5. COc1ccc(OC(=O)Oc2ncc(F)c(/N=C/N(C)C)n2)cc1 [Compound 523]

*A*
1: 76 to 100%; 2: 76 to 100%; 3: 76 to 100%; 4: 76 to 100%; 5: 76 to 100%
